Give measured growth for each item. Keep answers brief.
- Tested on: SF-295 CNS
- EXPERIMENT SUMMARY: NCI-60 one-dose screen, 48 h (100 = growth as untreated, 0 = no growth, -100 = all killed)
- TEST SETTINGS: 10 µM
This is part of a sample that, as a whole, favours compounds with a hit. Of some 83,000 tested, about 20% had one in any assay.
# value in %; strip the unit string

Qu. Consider the compound CCCn1c(=O)c2[nH]c(-c3ccc(OCc4nc5ccccc5[nH]4)cc3)nc2n(CCC)c1=O and give its measured growth.
Ans. 37.4

Qu. Consider the compound CCOC(=O)C1=C(N)N(c2ccccc2)C2=C(C(=O)CC(C)(C)C2)C1c1ccc(Cl)cc1 (stereo not drawn) and give its measured growth.
Ans. 21.3

Qu. Consider the compound COc1ccc2c(c1)N=C(C(=O)O)/C2=C/c1sc(Nc2ccc(O)cc2)nc1O and give its measured growth.
Ans. 76.5

====

- Test system: ACHN renal
- EXPERIMENT SUMMARY: NCI-60 one-dose screen, 48 h (100 = growth as untreated, 0 = no growth, -100 = all killed)
- TEST SETTINGS: 10 µM
The panel holds about 83,000 compounds, 20% with a hit somewhere; the sample as a whole holds those more often.
PARAMETER MEASURED: growth (%)
# value in %; strip the unit string

Qu. Consider the compound O=C(CS(=O)(=O)c1oc(-c2ccc(Cl)cc2)nc1S(=O)(=O)c1ccc(Cl)cc1)N1CCOCC1 and give its measured growth.
Ans. -98.2

Qu. Consider the compound CCCCOc1ccc(Nc2nc3ccccc3nc2Nc2ccc(OCCCC)cc2)cc1 and give its measured growth.
Ans. 97.7

Qu. Consider the compound COc1cc(-c2nc3cc(Cl)c(Cl)cc3[nH]2)ccc1OCc1nnc(-c2ccc(Br)cc2)o1 and give its measured growth.
Ans. -100

Qu. Consider the compound CCOC(=O)C(Cc1ccccc1)N1C(=O)/C(=C/N2N=C(c3ccc(OC)cc3)CC2c2ccc3ccccc3c2)SC1=S (configuration not stated) and give its measured growth.
Ans. 23.2

Qu. Consider the compound O=C(Nc1ccc(I)cc1)Nc1nc2ccc([N+](=O)[O-])cc2s1 and give its measured growth.
Ans. -100

Qu. Consider the compound O=C(NCCCCC(c1ccc(F)cc1)c1ccc(F)cc1)NCCCc1cccnc1 and give its measured growth.
Ans. 37.5

Qu. Consider the compound O=C(Nc1ccccc1)Nc1nc2ccccc2s1 and give its measured growth.
Ans. 82.2

====

- Tested on: SK-MEL-5 melanoma
- EXPERIMENT SUMMARY: NCI-60 one-dose screen, 48 h (100 = growth as untreated, 0 = no growth, -100 = all killed)
- TEST SETTINGS: 10 µM
This is part of a sample that, as a whole, favours compounds with a hit. Of some 83,000 tested, about 20% had one in any assay. Activity calls are given as the source filed them. How the source made its calls: active means growth percent below 10; inactive means the rest.
PARAMETER MEASURED: growth

Qu. Consider the compound COc1ccc(/C=C/C(=O)c2ccc(N3CCN(C)CC3)cc2)c(C(F)(F)F)c1 and give its measured growth.
Ans. 36.7% (inactive)

Qu. Consider the compound CN1C(=O)N(C)C2SC(N/N=C/C=C/c3ccccc3)=NC21 (stereo unspecified) and give its measured growth.
Ans. 57.9% (inactive)

Qu. Consider the compound CC1=C(c2cc(-c3ccc(Cl)cc3)c(C#N)c(N)n2)C(c2ccccc2)NC(=S)N1 (stereo unspecified) and give its measured growth.
Ans. 58.1% (inactive)

Qu. Consider the compound COc1cc2c3c(n(CCCn4ccnc4)c(=O)c2cc1OC)-c1nc2c(cc1C3=O)OCO2 and give its measured growth.
Ans. 7.02% (active)

Qu. Consider the compound COc1ccc(NC(=O)CSc2nnc(-c3ccc4nc(-c5ccc(Cl)cc5)[nH]c4c3)o2)cc1 and give its measured growth.
Ans. 16.1% (inactive)

Qu. Consider the compound N#Cc1c(NC(=O)c2ccc(C(F)(F)F)cc2C(F)(F)F)sc2c1CCC(=O)C2 and give its measured growth.
Ans. -97.6% (active)

Qu. Consider the compound COc1ccccc1[C@H]1C(C(=O)c2ccc(Cl)cc2)C2(N[C@@H]1c1ccccc1)C(=O)Nc1ccc(Cl)cc12 (stereo partly specified) and give its measured growth.
Ans. -75.4% (active)

Qu. Consider the compound Cc1cc(C)nc(/N=C(\N)Nc2ccc(S(=O)(=O)Nc3nc(C)cc(C)n3)cc2)n1 and give its measured growth.
Ans. 102% (inactive)

Qu. Consider the compound C/C(=C\CC/C=C(\C)CC/C=C(\C)CC[C@@H](O)C(C)(C)O)CC/C=C(\C)CC[C@@H](O)C(C)(C)O and give its measured growth.
Ans. -16.3% (active)

Qu. Consider the compound S=c1nc(-c2ccccc2)cc(-c2cc3ccccc3nc2Cl)[nH]1 and give its measured growth.
Ans. 32.1% (inactive)

Qu. Consider the compound N#Cc1c(-c2ccc(Cl)cc2)cc(-c2ccccc2)nc1OCc1ccccc1 and give its measured growth.
Ans. 54% (inactive)

Qu. Consider the compound O=c1c2ccccc2nc(COc2ccccc2)n1/N=C/c1ccc(F)cc1 and give its measured growth.
Ans. 68.5% (inactive)

Qu. Consider the compound COc1ccc(-c2ccc(/C=N/NC(=O)c3[nH]c4ccc(Br)cc4c3-c3ccccc3)s2)cc1 and give its measured growth.
Ans. 106% (inactive)

Qu. Consider the compound O=C(CSc1nnc(-c2ccc3nc(-c4ccc(Cl)cc4)[nH]c3c2)o1)Nc1ccc(Cl)cc1 and give its measured growth.
Ans. -68.9% (active)

Qu. Consider the compound COc1ccc(C(=O)Nc2sc3c(c2C#N)CCC(=O)C3)cc1C(F)(F)F and give its measured growth.
Ans. -92.2% (active)

Qu. Consider the compound Oc1ccc(/C=C2\CCCc3cc4ccc(O)cc4[o+]c32)c(O)c1 and give its measured growth.
Ans. 69.6% (inactive)

Qu. Consider the compound COc1ccc2[nH]c(O)c(N=NC(=O)c3cc(-c4ccc(C)cc4)nc4ccccc34)c2c1 and give its measured growth.
Ans. 94.6% (inactive)

Qu. Consider the compound N#Cc1ccc(-c2nn(-c3ccc(C(=O)O)cc3)cc2CNc2cc(Cl)cc(Cl)c2)cc1 and give its measured growth.
Ans. 23.9% (inactive)

Qu. Consider the compound N#Cc1ccc(-c2nn(-c3ccc(C(=O)O)cc3)cc2CNc2cccc(Br)c2)cc1 and give its measured growth.
Ans. 24.1% (inactive)

Qu. Consider the compound C#Cc1ccc(S(=O)(=O)Nc2cccc(-c3csc(NC(C)=O)n3)c2)cc1 and give its measured growth.
Ans. 43.2% (inactive)

Qu. Consider the compound O=C(Cn1nc(-c2ccccc2)ccc1=O)NN1C(=O)c2ccccc2C1=O and give its measured growth.
Ans. 100% (inactive)

Qu. Consider the compound COc1ccc(NC(=O)Cn2c(/C=C/c3ccc(N(C)C)cc3)nc3ccccc3c2=O)cc1 and give its measured growth.
Ans. 30.7% (inactive)

Qu. Consider the compound COc1csc(/C=N/NC(=O)c2[nH]c3ccc(Br)cc3c2-c2ccccc2)c1 and give its measured growth.
Ans. -37.2% (active)

Qu. Consider the compound CCCn1c(=O)c2[nH]c(-c3ccc(OCc4nc5ccc(F)cc5[nH]4)cc3)nc2n(CCC)c1=O and give its measured growth.
Ans. -22.5% (active)

Qu. Consider the compound O=c1[nH]c2ccc(Cl)cc2cc1CSc1ccc(Nc2nccc(-c3ccc(Cl)cc3)n2)cc1 and give its measured growth.
Ans. 97% (inactive)

Qu. Consider the compound O=C(CNc1nc(-c2ccccc2)cs1)Nc1cccc([N+](=O)[O-])c1 and give its measured growth.
Ans. -100% (active)

Qu. Consider the compound Cc1ccc(CNC(=O)Cc2ccc3c(c2)CN(C2CCC(=O)NC2=O)C3=O)cc1 (stereo unspecified) and give its measured growth.
Ans. -70.5% (active)

Qu. Consider the compound COc1cccc(-c2ccc(/C=N/NC(=O)c3[nH]c4ccc(Br)cc4c3-c3ccccc3)o2)c1 and give its measured growth.
Ans. -0.615% (active)

Qu. Consider the compound CCCn1c(=O)c2[nH]c(-c3ccc(OCc4nc5ccc(C(F)(F)F)cc5[nH]4)cc3)nc2n(CCC)c1=O and give its measured growth.
Ans. 37.1% (inactive)

Qu. Consider the compound O=C(Nc1ccc(OCc2ccccc2)cc1)Nc1ccc(Cl)c(C(F)(F)F)c1 and give its measured growth.
Ans. -96.6% (active)

Qu. Consider the compound O=C(c1ccc(Cl)cc1)C1[C@H](c2ccccc2Br)[C@@H](c2ccccc2)NC12C(=O)Nc1ccc(Br)cc12 (stereo partly specified) and give its measured growth.
Ans. 14.4% (inactive)

Where do these numbers come from? They come from PubChem BioAssay (NCI).
